endpoint_name: melting point

**Query** Which melting point is listed for Cc1c(NC(=O)C(C)(Cc2ccccc2)CC(F)(F)F)cnc2c(F)cccc12 (stereo not drawn) [Compound E-50] ?
**Result** 106 to 109 °C

**Query** Moving on to CC(Cc1ccccc1)(CC1CC1)C(=O)Nc1cnc2c(F)cccc2c1 (stereo not drawn) [Compound E-76]
**Result** 157 to 159 °C

**Query** Moving on to Cc1c(NC(=O)C(Cc2ccccc2)CC2(C)CC2)cnc2c(F)cccc12 (stereo not drawn)
**Result** 144 to 146 °C

**Query** Moving on to C=C(Cl)CC(C)(Cc1ccccc1)C(=O)Nc1cc2cccc(F)c2nc1C (stereo not drawn) [Compound E-21]
**Result** 121 to 123 °C

**Query** Moving on to Cc1nc2c(F)cccc2cc1NC(=O)C(C)(Cc1ccccc1)CC(F)(F)F (stereo not drawn) [Compound E-47]
**Result** 130 to 132 °C

**Query** Moving on to C=C(Cl)CC(Cc1ccccc1)C(=O)Nc1cnc2c(F)cccc2c1 (stereo not drawn) [Compound E-6]
**Result** 166 to 168 °C

**Query** Moving on to Cc1c(NC(=O)[C@@](C)(Cc2ccccc2)CC(F)(F)F)cnc2c(F)cccc12 [Compound F-14]
**Result** 74 to 76 °C

**Query** Moving on to C=C(CC)CC(C)(Cc1ccccc1)C(=O)Nc1cnc2c(F)cccc2c1 (stereo not drawn) [Compound E-54]
**Result** 118 to 120 °C

**Query** Moving on to CC(C)=CC(C)(Cc1ccccc1)C(=O)Nc1cnc2c(F)cccc2c1 (stereo not drawn) [Compound E-48]
**Result** 167 to 169 °C

----------
Please go through the items and note down their melting point.

**Query** Which melting point is listed for C=C(C)CC(C)(Cc1ccccc1)C(=O)Nc1cnc2c(F)cccc2c1 (stereo not shown) ?
**Result** 147 to 149 °C

**Query** Moving on to CC(Cc1ccccc1)(CC(F)(F)F)C(=O)Nc1cnc2c(F)c(F)ccc2c1 (stereo not shown)
**Result** 183 to 186 °C

**Query** Moving on to CC(Cc1ccccc1)C(=O)Nc1cnc2c(F)cccc2c1 (stereo not shown)
**Result** 188 to 190 °C

**Query** Moving on to CC(F)(F)CC(C)(Cc1ccccc1)C(=O)Nc1cnc2c(F)cccc2c1 (stereo not shown)
**Result** 156 to 158 °C

**Query** Moving on to COC(Cc1ccccc1)(CC(C)C)C(=O)Nc1cc2cccc(F)c2nc1C (stereo not shown)
**Result** 92 to 94 °C

**Query** Moving on to "Cc1c(NC(=O)[C@](C)(Cc2ccccc2)CC(F)(F)F)cnc2c(F)cccc12"
**Result** 71 to 73 °C

**Query** Moving on to Cc1nc2c(F)cccc2cc1NC(=O)C(Cc1ccccc1)CC1(C)CC1 (stereo not shown)
**Result** 162 to 163 °C

**Query** Moving on to C=C(C)CC(C)(Cc1ccccc1)C(=O)Nc1cnc2c(Br)cccc2c1 (stereo not shown)
**Result** 165 to 169 °C

**Query** Moving on to CC#CCC(C)(Cc1ccccc1)C(=O)Nc1cnc2c(F)cccc2c1 (stereo not shown)
**Result** 136 to 138 °C

**Query** Moving on to CC#CCC(Cc1ccccc1)C(=O)Nc1cnc2c(F)cccc2c1 (stereo not shown)
**Result** 218 to 220 °C

**Query** Moving on to C=C(Cl)CC(Cc1ccccc1)C(=O)Nc1cc2cccc(F)c2nc1C (stereo not shown)
**Result** 96 to 99 °C

**Query** Moving on to CN(C(=O)C(C)(Cc1ccccc1)CC(F)(F)F)c1cnc2c(F)cccc2c1 (stereo not shown)
**Result** 137 to 139 °C

**Query** Moving on to C=C(F)CC(C)(Cc1ccccc1)C(=O)Nc1cnc2c(F)cccc2c1 (stereo not shown)
**Result** 132 to 134 °C

**Query** Moving on to Cc1nc2c(Cl)cccc2cc1NC(=O)C(C)(Cc1ccccc1)CC(C)C (stereo not shown)
**Result** 99 to 100 °C

**Query** Moving on to C=CCC(C)(Cc1ccccc1)C(=O)Nc1cnc2c(F)cccc2c1 (stereo not shown)
**Result** 146 to 149 °C

**Query** Moving on to CC(C)CC(C)(Cc1ccccc1)C(=O)Nc1cnc2c(Cl)cccc2c1 (stereo not shown)
**Result** 163 to 165 °C
